# Test system: OVCAR-5 ovarian
# TEST PROTOCOL: NCI-60 one-dose screen, 48 h (100 = growth as untreated, 0 = no growth, -100 = all killed)
# CONDITION SUMMARY: 10 µM unless noted
Compounds without any hit were thinned out: in the full panel of roughly 83,000, 20% have a hit.
Hi! Could you tag entries with growth below 60% as True, and those at or above as False? Much appreciated.

I wonder whether Cc1ccc(C(=O)Nc2ccccc2C(=O)N/N=C(\c2ccccc2)c2ccccn2)cc1 has growth below 60%. Can you tell?
True

I wonder whether COc1cc2nc(-c3ccc(C(F)(F)F)cc3)cc(OCCCN3CCC(O)CC3)c2cc1OC has growth below 60%. Can you tell?
True

I wonder whether Cc1cccc(Oc2ccc(Nc3ncnc4ccc(NC(=O)CNCCO)cc34)cc2Cl)c1 has growth below 60%. Can you tell?
False

I wonder whether O=C1OC(=O)C2C1CC=CC2c1ccccc1 (stereo unspecified) has growth below 60%. Can you tell?
False

I wonder whether O=C(O)c1ccc[n+](CC(=O)N2CCN(c3cc4c(cc3F)c(=O)c(C(=O)O)cn4C3CC3)CC2)c1 has growth below 60%. Can you tell?
False
